Target: Aldo-keto reductase family 1 member B10 (Homo sapiens)
Sequence (O60218 whole entry): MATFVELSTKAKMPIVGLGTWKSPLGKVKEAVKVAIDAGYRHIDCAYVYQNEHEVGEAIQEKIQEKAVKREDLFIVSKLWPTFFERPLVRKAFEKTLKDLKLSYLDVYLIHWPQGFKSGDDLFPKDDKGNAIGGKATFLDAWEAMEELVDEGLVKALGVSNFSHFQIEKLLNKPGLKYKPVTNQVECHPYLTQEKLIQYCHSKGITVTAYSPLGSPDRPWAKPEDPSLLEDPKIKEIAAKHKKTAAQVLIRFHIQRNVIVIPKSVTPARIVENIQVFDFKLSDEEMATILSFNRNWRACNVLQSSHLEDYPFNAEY
Assay: Inhibition of recombinant N-His6-tagged AKR1B10 expressed in Escherichia coli BL21 cells using pyridine-3-aldehyde as substrate by spectrophotometry
IC50 reference
Reply numerically in nM, unit not repeated.

I have this compound here, O=C(O)Cn1c2c(c3ccccc31)CCN(Cc1ccc(C(F)(F)F)cc1)C2=S , and I need its recorded IC50.
3800

---

Target: UniProt P15121
Experiment: Inhibition of human recombinant AKR1B1 expressed in Escherichia coli BL21 cells using pyridine-3-aldehyde as substrate by spectrophotometry
pIC50 overview
Convention used: pIC50 is expressed as -log10 of the molar concentration.

For the record O=C(O)Cn1c2c(c3ccccc31)CCN(c1ccccc1)C2=S , what value of pIC50 is listed for UniProt P15121?
4.51

Write down the reported pIC50 of O=C(O)Cn1c2c(c3cc(Br)ccc31)CCN(Cc1ccccc1)C2=S , test system: UniProt P15121.
6.49

Which pIC50 is reported with UniProt P15121 for this entry: O=C(O)Cn1c2c(c3ccccc31)CCN(Cc1ccc(Br)cc1)C2=S ?
5.23

What reported pIC50 corresponds to O=C(O)Cn1c2c(c3cc(F)ccc31)CCN(Cc1ccc(Br)cc1F)C2=S on UniProt P15121?
5.77

What measured pIC50 is associated with O=C(O)Cn1c2c(c3ccc(Cl)cc31)CCN(Cc1ccccc1)C2=S on UniProt P15121?
6.62

Value wanted: pIC50 (UniProt P15121) of entry O=C(O)Cn1c2c(c3cc(I)ccc31)CCN(Cc1ccccc1)C2=S
6.72

API: value(readout= pIC50, system= UniProt P15121, query= O=C(O)Cn1c2c(c3ccccc31)CCN(Cc1ccc(Br)cc1F)C2=S )
5.38

Requested read-out pIC50, target or system UniProt P15121, entry O=C(O)Cn1c2c(c3c(F)cc(F)cc31)CCN(Cc1ccccc1)C2=S
5.89

Observed pIC50 on UniProt P15121 for O=C(O)Cn1c2c(c3c(Cl)cc(Cl)cc31)CCN(Cc1ccccc1)C2=S , please.
6.72

# query: pIC50 | item O=C(O)Cn1c2c(c3cc(F)ccc31)CCN(Cc1ccccc1)C2=S | system: UniProt P15121
6.64

Value wanted: pIC50 (UniProt P15121) of entry O=C(O)Cn1c2c(c3cc(O)ccc31)CCN(Cc1ccccc1)C2=S
6.70

Test system UniProt P15121; read-out pIC50; what value for O=C(O)Cn1c2c(c3cc(C(=O)O)ccc31)CCN(Cc1ccccc1)C2=S ?
6.77

Find pIC50 (UniProt P15121) for the entry O=C(O)Cn1c2c(c3ccccc31)CCN(Cc1ccccc1)C2=S
6.66

Query pIC50 on UniProt P15121 for COc1ccc2c(c1)c1c(n2CC(=O)O)C(=S)N(Cc2ccccc2)CC1
6.82

Request - read-out pIC50 | tested on UniProt P15121 | molecule CC(C)c1ccc2c(c1)c1c(n2CC(=O)O)C(=S)N(Cc2ccccc2)CC1
6.70

Fill in the recorded pIC50 for this molecule, with UniProt P15121 as test system: O=C(O)Cn1c2c(c3c(F)cc(F)cc31)CCN(CCc1ccccc1)C2=S
5.74

Give recorded pIC50 with UniProt P15121 for the following molecule: O=C(O)Cn1c2c(c3cc(Cl)ccc31)CCN(Cc1ccccc1)C2=S
6.46

Fill in the recorded pIC50 for this molecule, with UniProt P15121 as test system: O=C(O)Cn1c2c(c3ccccc31)CCN(Cc1ccc(C(F)(F)F)cc1)C2=S
4.85

Reported pIC50 for UniProt P15121, given O=C(O)Cn1c2c(c3cc(F)ccc31)CCN(Cc1ccc(C(F)(F)F)cc1)C2=S ?
5.00
